Biological target: UniProtKB Q5NUL3
Sequence (Q5NUL3 whole entry): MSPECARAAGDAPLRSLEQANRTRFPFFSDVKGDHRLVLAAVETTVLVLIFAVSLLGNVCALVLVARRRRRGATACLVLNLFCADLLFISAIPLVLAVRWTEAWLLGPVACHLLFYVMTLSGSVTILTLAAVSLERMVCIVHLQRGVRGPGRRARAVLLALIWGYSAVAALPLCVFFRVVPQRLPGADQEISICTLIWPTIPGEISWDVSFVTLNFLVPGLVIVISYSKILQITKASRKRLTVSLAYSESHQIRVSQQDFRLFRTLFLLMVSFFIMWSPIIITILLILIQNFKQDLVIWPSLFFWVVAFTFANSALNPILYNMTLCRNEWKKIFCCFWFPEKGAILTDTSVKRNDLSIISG
Assay: Agonist activity at human GPR120 assessed as induction of IP1 accumulation
Assay type: functional
QUANTITY: EC50 (nM)

P = O=C(O)C1CCC(C2CCN(c3cc(OC(F)(F)F)ccc3F)CC2)CC1 (stereo not drawn)
Q = O=C(O)C1CCN(c2ccc(-c3cc(OC(F)(F)F)ccc3F)cc2)CC1
Please state the entry with greater EC50 among P and Q . Indicate your choice by writing its label.
P
(P: 700 nM, Q: 300 nM)

====

experiment: MRT in dog at 1 mg/kg, iv or 2 mg/kg, po by LC/MS/MS analysis; type: ADME, organism-based, Canis lupus familiaris; settings: in vivo
QUANTITY: MRT (h)
Answer in h, number only, no unit symbol.

State, in one line, measured MRT of `O=C(O)CC1CCC2(CC1)CCN(c1cc(OC(F)(F)F)ccc1Cl)CC2`
10.5

====

assay: AUC in rhesus monkey at 0.5 mg/kg, iv by LC/MS/MS analysis; format: ADME, organism-based, Macaca mulatta; details: in vivo
QUANTITY: AUC (µM·h)
Answer in µM·h, number only, no unit symbol.

State, in one line, measured AUC of `O=C(O)CC1CCC2(CC1)CCN(c1cc(OC(F)(F)F)ccc1Cl)CC2`
8.7

====

assay: Half life in dog at 1 mg/kg, iv or 2 mg/kg, po by LC/MS/MS analysis; assay type: ADME, organism-based, Canis lupus familiaris; details: in vivo
QUANTITY: half-life (h)
Answer in h, number only, no unit symbol.

State, in one line, measured half-life of `O=C(O)CC1CCC2(CC1)CCN(c1cc(OC(F)(F)F)ccc1Cl)CC2`
11

====

experiment: Volume of distribution at steady state in rhesus monkey at 0.5 mg/kg, iv or 1 mg/kg, po by LC/MS/MS analysis; assay type: ADME, organism-based, Macaca mulatta; conditions: in vivo, read-out: Vdss
QUANTITY: Vd (L/kg)
Answer in L/kg, number only, no unit symbol.

State, in one line, measured Vd of `O=C(O)CC1CCC2(CC1)CCN(c1cc(OC(F)(F)F)ccc1Cl)CC2`
1.7

====

molecular target: Free fatty acid receptor 4 (Homo sapiens); test: Agonist activity at human GPR120 assessed as induction of beta-arrestin recruitment
pEC50: −log10 of the molar value.
QUANTITY: pEC50

QUERY_SMILES | TARGET_DESC | pEC50
O=C(O)C1CCN(c2ccc(-c3cc(OC(F)(F)F)ccc3F)cc2)CC1 | Free fatty acid receptor 4 (Homo sapiens) | 5.80

1 = O=C(O)CCc1cc2cc(-c3cc(OC(F)(F)F)ccc3F)ccc2o1
2 = Cc1cc(-c2cc(OC(F)(F)F)ccc2Cl)cc(C)c1OCCCC(=O)O
From the items above, decide which of 1 and 2 has the lower pEC50 reading. Indicate your choice by writing its label.
2
(2: 7.00, 1: 7.80)

====

target: Free fatty acid receptor 4 (Mus musculus, UniProt Q7TMA4); assay: Agonist activity at mouse GPR120 expressed in U2OS cells assessed as induction of beta-arrestin2 recruitment after 90 mins by luminescence assay; type: cell-based
Sequence (Q7TMA4 whole entry): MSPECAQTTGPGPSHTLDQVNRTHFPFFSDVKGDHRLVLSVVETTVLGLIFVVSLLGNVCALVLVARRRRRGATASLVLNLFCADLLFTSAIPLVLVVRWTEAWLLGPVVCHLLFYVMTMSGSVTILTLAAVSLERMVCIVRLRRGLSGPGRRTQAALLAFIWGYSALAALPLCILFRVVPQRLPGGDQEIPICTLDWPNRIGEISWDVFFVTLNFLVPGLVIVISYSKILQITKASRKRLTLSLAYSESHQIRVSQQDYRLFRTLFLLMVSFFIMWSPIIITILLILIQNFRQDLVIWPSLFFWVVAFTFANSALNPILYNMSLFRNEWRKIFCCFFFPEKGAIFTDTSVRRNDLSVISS
QUANTITY: EC50 (nM)

QUERY_SMILES | UNIT_DESCRIPTOR | EC50
N#Cc1cc(SC(F)(F)F)cc(N2CCC3(CCC(CC(=O)O)CC3)CC2)c1 | nM | 140

P = O=C(O)CC1CCC2(CC1)CCN(c1cc(F)cc(Cl)c1F)CC2
Q = N#Cc1ccc(OC(F)(F)F)cc1N1CCC2(CCC(CC(=O)O)CC2)CC1
R = O=C(O)CC1CCC2(CC1)CCN(c1cc(C(F)(F)F)ccc1F)CC2
S = O=C(O)CC1CCC2(CC1)CCN(c1cc(Cl)cc(Cl)c1)CC2
// sort entries: EC50, high to low # output: labels, in the requested order
R, P, Q, S
(R: 3000 nM, P: 1100 nM, Q: 290 nM, S: 120 nM)

====

test: Plasma clearance in mouse at 2 mg/kg, iv or 10 mg/kg, po by LC/MS/MS analysis; type: ADME, organism-based
QUANTITY: clearance (mL/min/kg)
Answer in mL/min/kg, number only, no unit symbol.

State, in one line, measured clearance of `O=C(O)CC1CCC2(CC1)CCN(c1cc(OC(F)(F)F)ccc1Cl)CC2`
8.4

====

assay: Half life in mouse at 2 mg/kg, iv or 10 mg/kg, po by LC/MS/MS analysis; type: ADME, organism-based; details: in vivo
QUANTITY: half-life (h)
Answer in h, number only, no unit symbol.

State, in one line, measured half-life of `O=C(O)CC1CCC2(CC1)CCN(c1cc(OC(F)(F)F)ccc1Cl)CC2`
18.1

====

test: Volume of distribution at steady state in mouse at 2 mg/kg, iv or 10 mg/kg, po by LC/MS/MS analysis; format: ADME, organism-based; details: in vivo, read-out: Vdss
QUANTITY: Vd (L/kg)
Answer in L/kg, number only, no unit symbol.

State, in one line, measured Vd of `O=C(O)CC1CCC2(CC1)CCN(c1cc(OC(F)(F)F)ccc1Cl)CC2`
8.9

====

experiment: AUC in rat at 1 mg/kg, iv by LC/MS/MS analysis; assay type: ADME, organism-based; conditions: in vivo
QUANTITY: AUC (µM·h)
Answer in µM·h, number only, no unit symbol.

State, in one line, measured AUC of `O=C(O)CC1CCC2(CC1)CCN(c1cc(OC(F)(F)F)ccc1Cl)CC2`
17.5

====

assay: Half life in rhesus monkey at 0.5 mg/kg, iv or 1 mg/kg, po by LC/MS/MS analysis; assay type: ADME, organism-based, Macaca mulatta; details: in vivo
QUANTITY: half-life (min)
Answer in min, number only, no unit symbol.

State, in one line, measured half-life of `O=C(O)CC1CCC2(CC1)CCN(c1cc(OC(F)(F)F)ccc1Cl)CC2`
546

====

experiment: Oral bioavailability in rhesus monkey at 1 mg/kg by LC/MS/MS analysis; assay type: ADME, organism-based, Macaca mulatta; conditions: in vivo
QUANTITY: bioavailability (%)
Answer in %, number only, no unit symbol.

State, in one line, measured bioavailability of `O=C(O)CC1CCC2(CC1)CCN(c1cc(OC(F)(F)F)ccc1Cl)CC2`
77

====

experiment: Oral bioavailability in rat at 2 mg/kg by LC/MS/MS analysis; assay type: ADME, organism-based; conditions: in vivo
QUANTITY: bioavailability (%)
Answer in %, number only, no unit symbol.

State, in one line, measured bioavailability of `O=C(O)CC1CCC2(CC1)CCN(c1cc(OC(F)(F)F)ccc1Cl)CC2`
95

====

molecular target: Free fatty acid receptor 4 (Homo sapiens); assay: Agonist activity at ARMS2-PK2 -tagged human GPR120 short isoform expressed in CHOK1 cells assessed as induction of beta-arrestin2 recruitment after 90 mins by luminescence assay; format: cell-based, CHO-K1
pEC50: −log10 of the molar value.
QUANTITY: pEC50

Check out these entries, answers already filled in.
MOLECULE | pEC50
O=C(O)C1CC12CCC1(CCN(c3cc(OC(F)(F)F)ccc3Cl)CC1)CC2 (stereo not drawn) | 5.41
O=C(O)CC1CCC2(CC1)CCN(c1cc(F)cc(Cl)c1F)CC2 | 5.85
OCCC1CCC2(CC1)CCN(c1cc(OC(F)(F)F)ccc1Cl)CC2 | 6.48
O=C(O)CC1CCC2(CC1)CCN(c1cc(Cl)cc(Cl)c1)CC2 | 6.72
O=C(O)CCC1CCC2(CC1)CCN(c1cc(OC(F)(F)F)ccc1Cl)CC2 | 6.00
O=C(O)CC1CCC2(CC1)CCN(c1cc(C(F)(F)F)ccc1F)CC2 | 5.66
N#Cc1cc(SC(F)(F)F)cc(N2CCC3(CCC(CC(=O)O)CC3)CC2)c1 | 6.32
CC1CC2(CCC1CC(=O)O)CCN(c1cc(OC(F)(F)F)ccc1Cl)CC2 (stereo not drawn) | 5.57

I = O=C(O)CC1CCC2(CC1)CCN(c1cc(C(F)(F)F)ccn1)CC2
II = COc1ccc(Cl)c(N2CCC3(CCC(CC(=O)O)CC3)CC2)c1
III = O=C(O)CC1CCC2(CC1)CCN(c1cc(OC(F)(F)F)ccc1F)CC2
IV = N#Cc1ccc(OC(F)(F)F)cc1N1CCC2(CCC(CC(=O)O)CC2)CC1
V = CC(C(=O)O)C1CCC2(CC1)CCN(c1cc(OC(F)(F)F)ccc1Cl)CC2 (stereo not drawn)
// sort entries: pEC50, high to low # output: labels, in the requested order
IV, III, II, V, I
(IV: 6.43, III: 6.15, II: 5.60, V: 5.36, I: 5.04)

1 = O=C(O)CC1CCC2(CCN(c3cc(OC(F)(F)F)ccc3Cl)CC2)OC1 (stereo not drawn)
2 = CC1CC(CC(=O)O)CCC12CCN(c1cc(OC(F)(F)F)ccc1Cl)CC2 (stereo not drawn)
Please state the entry with greater pEC50 among 1 and 2 . Indicate your choice by writing its label.
2
(2: 6.24, 1: 5.68)
